- system-name: full-length HAQ STING (Homo sapiens (Human), UniProt Q86WV6, G230A/H232R/R293Q/R71H)
- Sequence (Q86WV6 other isoform, or with tags, fused parts or gaps, stated change not applied): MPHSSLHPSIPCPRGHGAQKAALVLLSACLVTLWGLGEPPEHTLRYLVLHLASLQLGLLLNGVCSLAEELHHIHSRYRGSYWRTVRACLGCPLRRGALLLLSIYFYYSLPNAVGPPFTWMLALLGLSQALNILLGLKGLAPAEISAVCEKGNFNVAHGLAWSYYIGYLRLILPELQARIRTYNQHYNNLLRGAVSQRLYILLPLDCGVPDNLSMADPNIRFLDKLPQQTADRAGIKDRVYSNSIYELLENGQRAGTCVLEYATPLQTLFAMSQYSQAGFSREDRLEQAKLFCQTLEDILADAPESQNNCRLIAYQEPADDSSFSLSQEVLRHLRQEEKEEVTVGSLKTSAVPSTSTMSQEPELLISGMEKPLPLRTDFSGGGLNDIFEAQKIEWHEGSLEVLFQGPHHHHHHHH
- assay-procedure: 3H-cGAMP filtration binding assay (HAQ STING)
- test-parameters: competition with tritiated cGAMP, HAQ STING membrane
parameter-measured: pEC50
// returns pEC50 (minus log10 of molar concentration), number only

# annotated cases, reported pEC50 shown
compound	parameter-measured	observed-result
CCCc1cc2cc(C(=O)C[C@H](C)C(=O)O)sc2cc1OC	pEC50	5.30
CNc1cc2sc(C(=O)C[C@H](C)C(=O)O)cc2cc1OC	pEC50	5.25

Pending compound:
Incoming: Indicate its recorded pEC50; the compound in question is "C=Cc1cc2cc(C(=O)C[C@H](C)C(=O)O)sc2cc1OC"
Outgoing: 5.24

Origin of values: patent US10730849B2
